- System: NFF human neonatal foreskin fibroblast cells ATCC PCS-201
- method: Resazurin assay, NFF human neonatal foreskin fibroblast cells
- Type: cell-based
- experimental.parameters: NFF human neonatal foreskin fibroblast ATCC PCS-201; 96 h
readout: MIC, NFF (µg/mL)
Reply numerically in µg/mL, unit not repeated.

For orientation, consider the following solved cases.
{"molecule": "CC[C@H](O)[C@@H](C)[C@H]1O[C@@H]1C[C@H](C)/C=C/C=C(\\C)[C@H]1OC(=O)C[C@H](O)CC[C@@](C)(O)[C@@H](OC(C)=O)/C=C/[C@@H]1C [Compound 1, pladienolide B]", "MIC, NFF [µg/mL]": 0.013}
{"molecule": "CC[C@H](O)[C@@H](C)[C@H]1O[C@@H]1C[C@H](C)/C=C/C=C(\\C)[C@H]1OC(=O)C[C@H](O)CC[C@H](C)[C@@H](OC(C)=O)/C=C/[C@@H]1C [Compound 2, 6-deoxypladienolide B]", "MIC, NFF [µg/mL]": 0.04}
{"molecule": "CC[C@H](O)[C@@H](C)/C=C/C[C@H](C)/C=C/C=C(\\C)[C@H]1OC(=O)C[C@H](O)CC[C@H](C)[C@@H](O)/C=C/[C@@H]1C [Compound 5, Δ18,19-6-deoxy-7-desacetylpladienolide B]", "MIC, NFF [µg/mL]": 10}
{"molecule": "CC[C@@H]1O[C@@H](C[C@H](C)/C=C/C=C(\\C)[C@H]2OC(=O)C[C@H](O)CC[C@@](C)(O)[C@@H](OC(C)=O)/C=C/[C@@H]2C)[C@H](O)[C@@H]1C [Compound 6, isopladienolide B]", "MIC, NFF [µg/mL]": 1.25}
{"molecule": "CC[C@H](O)[C@@H](C)/C=C/C[C@H](C)/C=C/C=C(\\C)[C@H]1OC(=O)C[C@H](O)CC[C@H](C)[C@@H](OC(C)=O)/C=C/[C@@H]1C [Compound 4, Δ18,19-6-deoxypladienolide B]", "MIC, NFF [µg/mL]": 0.4}

# ---- query molecule ----
// MIC, NFF value for CC[C@H](O)[C@@H](C)/C=C/C[C@H](C)/C=C/C=C(\C)[C@H]1OC(=O)C[C@H](O)CC[C@@](C)(O)[C@@H](OC(C)=O)/C=C/[C@@H]1C [Compound 3, Δ18,19-pladienolide B] : 0.6

Data credit: paper PMC8163091
